- SYSTEM_UNDER_TEST: T1, SARS-CoV2 Spike ecto foldon Trimer expressed with a C-terminal myc-myc-hexahistidine (SARS-CoV-2, UniProt P0DTC2 14-1213)
- T1 construct: extracellular domain
- ASSAY_COMMENT: SPR Biacore, mAb captured by anti-hFc, 37C
Each item that follows carries a reported koff.

Below, 4 binders whose answers are already recorded.
[
  {
    "BINDER": "mAb14257 (antibody, V domains shown) VH: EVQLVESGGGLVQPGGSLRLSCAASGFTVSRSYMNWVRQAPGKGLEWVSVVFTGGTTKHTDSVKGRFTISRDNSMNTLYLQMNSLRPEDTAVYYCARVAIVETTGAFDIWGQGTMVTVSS VL: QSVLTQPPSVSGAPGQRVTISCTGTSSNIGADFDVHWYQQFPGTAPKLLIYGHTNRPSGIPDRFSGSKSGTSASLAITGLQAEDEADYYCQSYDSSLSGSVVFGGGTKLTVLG",
    "MEASURED_ATTRIBUTE": "koff",
    "ENDPOINT_RESULT": "0.000165 s⁻¹"
  },
  {
    "BINDER": "mAb14235 (antibody, V domains shown) VH: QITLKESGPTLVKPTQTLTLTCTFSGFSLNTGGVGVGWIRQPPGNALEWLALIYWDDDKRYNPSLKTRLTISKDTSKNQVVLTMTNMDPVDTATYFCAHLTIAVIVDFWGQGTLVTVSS VL: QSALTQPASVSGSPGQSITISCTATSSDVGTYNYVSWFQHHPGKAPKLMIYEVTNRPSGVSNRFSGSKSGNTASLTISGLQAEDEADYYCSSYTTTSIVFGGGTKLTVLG",
    "MEASURED_ATTRIBUTE": "koff",
    "ENDPOINT_RESULT": "3.8e-05 s⁻¹"
  },
  {
    "BINDER": "mAb14280 (antibody, V domains shown) VH: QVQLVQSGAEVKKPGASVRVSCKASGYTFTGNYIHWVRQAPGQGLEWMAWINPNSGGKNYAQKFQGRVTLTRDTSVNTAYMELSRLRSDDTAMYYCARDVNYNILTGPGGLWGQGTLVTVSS VL: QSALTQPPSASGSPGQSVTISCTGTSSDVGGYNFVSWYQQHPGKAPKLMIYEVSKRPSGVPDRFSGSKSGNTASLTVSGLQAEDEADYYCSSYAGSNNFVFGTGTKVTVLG",
    "MEASURED_ATTRIBUTE": "koff",
    "ENDPOINT_RESULT": "2.86e-05 s⁻¹"
  },
  {
    "BINDER": "mAb14281 (antibody, V domains shown) VH: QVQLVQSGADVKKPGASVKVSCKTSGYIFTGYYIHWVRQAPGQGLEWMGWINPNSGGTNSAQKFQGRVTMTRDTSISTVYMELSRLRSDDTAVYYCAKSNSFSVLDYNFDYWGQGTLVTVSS VL: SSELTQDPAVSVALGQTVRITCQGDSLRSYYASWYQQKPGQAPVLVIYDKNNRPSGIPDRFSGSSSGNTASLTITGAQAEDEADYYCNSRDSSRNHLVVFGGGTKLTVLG",
    "MEASURED_ATTRIBUTE": "koff",
    "ENDPOINT_RESULT": "0.000116 s⁻¹"
  }
]

Please find the next binder below.
Please report the measured koff for mAb14255 (antibody, V domains shown) VH: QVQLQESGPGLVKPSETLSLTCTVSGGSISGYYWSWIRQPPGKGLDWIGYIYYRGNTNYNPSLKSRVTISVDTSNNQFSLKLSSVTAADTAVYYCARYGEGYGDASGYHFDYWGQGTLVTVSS VL: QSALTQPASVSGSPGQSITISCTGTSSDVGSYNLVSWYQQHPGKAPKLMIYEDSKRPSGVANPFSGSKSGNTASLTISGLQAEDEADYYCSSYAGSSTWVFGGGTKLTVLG 0.000161 s⁻¹
